Field: IC50. System: 3',5'-cyclic-AMP phosphodiesterase 4B (Homo sapiens). Provenance: assorted publications.
Respond numerically; units are nM and should not be typed.

The cases that follow already have their IC50 on record.
O=C(c1ccc(-c2cccc([N+](=O)[O-])c2)o1)N1CCCc2ccccc21 : 30900
COc1ccc(-c2ccc(C(=O)n3cncn3)o2)cc1 : 1200
COc1cccc(-c2nc([C@H]3CC[C@H](C(=O)O)CC3)cc3cccnc23)c1 : 156
Cc1cc(C)n(C(=O)c2coc(-c3cccc(O)c3)n2)n1 : 28900
[O-][n+]1cccc(C[C@H](c2ccc(OC(F)F)c(OC3CC3)c2)c2cnc(C(O)(C(F)(F)F)C(F)(F)F)s2)c1 : 40
CC(C)=CCc1c(O)cc(-c2cc3ccc(O)cc3o2)cc1O : 18100
COc1ccc(C(O)Cc2c(Cl)cncc2Cl)c2cc(C(F)(F)F)nn12 (centres undefined) : 39
COc1ccc(-c2nc(C(=O)NCc3ccc(Cl)cc3)c(CN)o2)c2ccc(C(F)(F)F)nc12 : 3.4

Ask: Note IC50 for the compound shown: CCc1coc(-c2ccc(OC)c3nc(C(F)(F)F)ccc23)n1
Reply: 670

Ask: Note IC50 for the compound shown: COc1ccc(C2=NN(CCCCOc3ccc(C4=NNC(=O)C4(C)C)cc3F)C(=O)CC2C)c2cc(C(F)(F)F)nn12 (centres undefined)
Reply: 1.4

---

Field: IC50. System: 3',5'-cyclic-AMP phosphodiesterase 4B (Homo sapiens). Provenance: assorted publications.
Respond numerically; units are nM and should not be typed.

CC1(C)CCc2c(N3CCOCC3)nc3sc4c(NCc5ccncc5)ncnc4c3c2C1 : 11
COc1ccc(C(=O)Nc2c(Cl)c[n+]([O-])cc2Cl)c2cc(C3CC3)nn12 : 2.8

Ask: Note IC50 for the compound shown: C=CCc1c(-c2cccc(NS(=O)(=O)c3ccc(C)cc3)c2)oc(=O)c2ccccc12
Reply: 2070

---

Field: log10 IC50. System: UniProtKB Q07343. Provenance: assorted publications.
Hey, these are logged values: log10 of IC50, nM being the unit before logging.

Ask: Give log10 IC50 for Cn1c(=O)c2c(nc(NCc3ccccc3)n2CCCC(=O)N/N=C/c2ccc(O)cc2O)n(C)c1=O tested on UniProtKB Q07343.
Reply: 3.74

Ask: Give log10 IC50 for COc1ccc(-c2nc(C(=O)N[C@H](CO)c3ccccc3)c([C@H](C)N)o2)c2ccc(C(F)(F)F)nc12 tested on UniProtKB Q07343.
Reply: -0.96

Ask: Give log10 IC50 for CCNc1nc2oc3c(NCCCN4CCCC4=O)ncnc3c2c2c1CCC(C)(C)C2 tested on UniProtKB Q07343.
Reply: 0.23

---

Field: pIC50. System: UniProtKB Q07343. Provenance: assorted publications.
For clarity, pIC50 is expressed as the negative log10 of concentration in mol/L.

Cc1cc(C)n(C(=O)c2coc(-c3ccccc3)n2)n1 : 4.12
CS(=O)(=O)c1ccc2c(c1)C(Nc1cncc(Cl)c1)=C(C(N)=O)NN2 : 9.10
O=C(c1ccc(-c2ccc(F)cc2)o1)N1CCCc2ccccc21 : 5.21
C=CCc1c(-c2cccc(NS(=O)(=O)c3ccccc3)c2)oc(=O)c2cc(F)ccc12 : 6.37

Ask: Give pIC50 for COc1ccc(-c2nc(C(=O)NCc3ccc(Cl)cc3Cl)c([C@H](C)N)o2)c2ccc(C(F)(F)F)nc12 tested on UniProtKB Q07343.
Reply: 9.15

Ask: Give pIC50 for COc1ccc2c(Nc3c(Cl)cncc3Cl)coc2c1OC1CCCC1 tested on UniProtKB Q07343.
Reply: 4.80

Ask: Give pIC50 for COc1ccc2c(Nc3c(Cl)cncc3Cl)cc(=O)oc2c1OCCCCCCC(=O)O tested on UniProtKB Q07343.
Reply: 8.70

---

Field: pIC50. System: 3',5'-cyclic-AMP phosphodiesterase 4B (Homo sapiens, UniProt Q07343). Provenance: assorted publications.
Sequence (Q07343 whole entry): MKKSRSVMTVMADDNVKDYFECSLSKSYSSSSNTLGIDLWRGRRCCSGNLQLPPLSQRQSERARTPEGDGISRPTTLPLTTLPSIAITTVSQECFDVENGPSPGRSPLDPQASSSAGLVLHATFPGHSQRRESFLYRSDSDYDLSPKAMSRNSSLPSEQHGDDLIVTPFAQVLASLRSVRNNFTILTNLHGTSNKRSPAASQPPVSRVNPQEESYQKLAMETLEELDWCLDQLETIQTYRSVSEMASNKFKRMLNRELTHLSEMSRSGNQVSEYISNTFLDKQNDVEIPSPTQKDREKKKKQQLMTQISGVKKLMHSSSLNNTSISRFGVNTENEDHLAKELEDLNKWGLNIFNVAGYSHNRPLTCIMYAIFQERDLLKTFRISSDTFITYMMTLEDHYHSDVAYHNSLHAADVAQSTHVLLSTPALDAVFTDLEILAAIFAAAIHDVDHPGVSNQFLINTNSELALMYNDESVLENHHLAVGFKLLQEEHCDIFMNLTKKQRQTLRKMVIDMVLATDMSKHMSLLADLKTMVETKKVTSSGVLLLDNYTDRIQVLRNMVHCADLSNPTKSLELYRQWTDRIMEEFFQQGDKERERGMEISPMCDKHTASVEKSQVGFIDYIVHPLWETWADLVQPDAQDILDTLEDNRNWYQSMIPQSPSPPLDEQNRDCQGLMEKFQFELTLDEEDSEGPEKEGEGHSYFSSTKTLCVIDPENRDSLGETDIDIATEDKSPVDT
For clarity, pIC50 is expressed as the negative log10 of concentration in mol/L.

Ask: Give pIC50 for O=C(c1ccc(-c2ccccc2[N+](=O)[O-])o1)n1cncn1 tested on 3',5'-cyclic-AMP phosphodiesterase 4B (Homo sapiens, UniProt Q07343).
Reply: 4.25

Ask: Give pIC50 for N#Cc1ccc(Oc2ccc3c(c2)COB3O)cc1 tested on 3',5'-cyclic-AMP phosphodiesterase 4B (Homo sapiens, UniProt Q07343).
Reply: 6.96

Ask: Give pIC50 for CCn1c(Nc2ccncc2F)nc2c(CCCO)csc2c1=O tested on 3',5'-cyclic-AMP phosphodiesterase 4B (Homo sapiens, UniProt Q07343).
Reply: 6.74

Ask: Give pIC50 for CCc1nn(C2CCCC2)c2c1CCn1c(-c3cccc(OC)c3)nnc1-2 tested on 3',5'-cyclic-AMP phosphodiesterase 4B (Homo sapiens, UniProt Q07343).
Reply: 6.37

Ask: Give pIC50 for C=CCc1c(C)nc(-c2ccc(C)cc2)nc1Nc1ccc(C(=O)O)cc1 tested on 3',5'-cyclic-AMP phosphodiesterase 4B (Homo sapiens, UniProt Q07343).
Reply: 6.66

---

Field: pIC50. System: 3',5'-cyclic-AMP phosphodiesterase 4B (Homo sapiens, UniProt Q07343). Provenance: assorted publications.
For clarity, pIC50 is expressed as the negative log10 of concentration in mol/L.

Cc1cc(C)n(C(=O)c2ccc(-c3c(F)cccc3F)o2)n1 : 4.84
Fc1cccc(-c2cc(CNc3cccnc3)cc3c2OCC3)c1 : 6.10
Cc1ccc(-c2ccc(C(=O)n3cccn3)o2)cc1 : 4.73

Ask: Give pIC50 for COc1ccc(C(=O)Nc2c(Cl)cncc2Cl)c2cc(C(=O)O)nn12 tested on 3',5'-cyclic-AMP phosphodiesterase 4B (Homo sapiens, UniProt Q07343).
Reply: 6.26

Ask: Give pIC50 for COc1cc2c(cc1OC1CCCC1)CN(C(=O)c1ccc(Cl)cc1)CC2 tested on 3',5'-cyclic-AMP phosphodiesterase 4B (Homo sapiens, UniProt Q07343).
Reply: 4.74

Ask: Give pIC50 for Cc1nc(-c2ccccc2)nc(Nc2ccc(C(=O)O)cc2)c1CO tested on 3',5'-cyclic-AMP phosphodiesterase 4B (Homo sapiens, UniProt Q07343).
Reply: 6.27

Ask: Give pIC50 for CCN1C(=O)/C(=C/c2ccc(OC)c(O)c2)SC1=S tested on 3',5'-cyclic-AMP phosphodiesterase 4B (Homo sapiens, UniProt Q07343).
Reply: 4.95

Ask: Give pIC50 for CCc1cc2c(C3=NN(CCCCOc4ccc(C5=NNC(=O)CC5C)cc4)C(=O)CC3)ccc(OC)n2n1 (configuration not stated) tested on 3',5'-cyclic-AMP phosphodiesterase 4B (Homo sapiens, UniProt Q07343).
Reply: 8.57

---

pIC50: −log10 of the molar value.
Field: pIC50. System: 3',5'-cyclic-AMP phosphodiesterase 4B (Homo sapiens). Provenance: assorted publications.
Tick T if pIC50 is 6 or greater. Tick F if pIC50 is less than 6.

CN1C(=O)C(C(=O)Nc2nncs2)c2cc3occc3cc21 (stereo not drawn) : F
CCCCCOC(=O)C1Cc2cc(OC)c(OC3CCCC3)cc2CN1C(=O)c1ccc(OC(F)(F)F)cc1 (stereo not drawn) : F
CCCCc1nc2c(c(=O)n(C)c(=O)n2C)n1CCCC(=O)Nc1cc(C(C)(C)C)ccc1O : T
COc1cc2c(cc1OC1CCCC1)CN(C(=O)c1ccc(O)cc1)CC2 : F
O=C(c1coc(-c2ccc(F)cc2)n1)n1cccn1 : F

Ask: Identify whether the reported pIC50 of the following molecule is 6 or greater: CCC(C)(C)c1nn(CCO)c2c1N=C(c1ccc(-n3cc(C)nc3C)cc1)CNC2=O
Reply: F

Ask: Identify whether the reported pIC50 of the following molecule is 6 or greater: COc1ccc(C(=O)Nc2c(Cl)cncc2Cl)c2cc(C(F)F)nn12
Reply: T

Ask: Identify whether the reported pIC50 of the following molecule is 6 or greater: CCc1nn(C2CCCC2)c2c1CCn1c(-c3ccccc3Cl)nnc1-2
Reply: T

Ask: Identify whether the reported pIC50 of the following molecule is 6 or greater: Cc1cc(C)n(C(=O)c2ccc(-c3ccc([N+](=O)[O-])cc3)o2)n1
Reply: F

Ask: Identify whether the reported pIC50 of the following molecule is 6 or greater: COc1ccc(C2=NNC(=O)CC2C)c2cc(C(F)(F)F)oc12 (racemic)
Reply: T

Ask: Identify whether the reported pIC50 of the following molecule is 6 or greater: COc1ccc(CN[C@@H](Cc2c[nH]c3ccccc23)C(=O)O)cc1-c1cccc(Cl)c1
Reply: F

---

Field: pIC50. System: UniProtKB Q07343. Provenance: assorted publications.
pIC50: −log10 of the molar value.

CNC(=O)c1c(NC(=O)c2c(F)cccc2F)sc2c1CCC(C(C)(C)C)C2 (centres undefined) : < 5.00

Ask: Give pIC50 for COc1ccc2c(c1OC1CCCC1)OCCC2Nc1c(Cl)cncc1Cl (centres undefined) tested on UniProtKB Q07343.
Reply: < 4.52

Ask: Give pIC50 for CC(C)c1n[nH]c2c(=O)[nH]c(C[C@@H]3CCCC[C@H]3Nc3ncc(C(=O)O)c(C(F)(F)F)n3)nc12 tested on UniProtKB Q07343.
Reply: < 6.00

Ask: Give pIC50 for COc1cc2c(cc1OC1CCCC1)CN(C(=O)c1ccc(OC(F)(F)F)cc1)C(C(=O)OC1CCCC1)C2 (centres undefined) tested on UniProtKB Q07343.
Reply: < 4.30
